Vd for assorted molecules
# protocol_description: Volume of distribution at steady state n ICR mouse at 4 mg/kg, iv after 0.08 to 24 hrs by LC-MS/MS analysis
# Assay type: ADME, organism-based
# run_parameters: in vivo, read-out: Vdss

smiles_record	Vd, L/kg
CCc1ccc(SCc2ccc(C(=O)Nc3ccccc3N)cc2)cc1	3.46
COc1ccc(SCc2ccc(C(=O)Nc3ccccc3N)cc2)cc1	1.74
Nc1ccccc1NC(=O)c1ccc(COc2ccc(F)cc2)cc1	2.33

---

# System: A549
# protocol_description: Antiproliferative activity against human A549 cells assessed as growth inhibition at 2 uM after 72 hrs by CCK-8 assay relative to control
# Format: functional
# run_parameters: A549, 72 h, read-out: GI
Where inhibition of growth at 2 µM equals or exceeds 50%, the correct label is rule met; where it does not, the label is rule not met.

smiles_record	class_name
Nc1ccccc1NC(=O)/C=C/c1ccc(CSc2cccc3ccccc23)cc1	rule met
Nc1ccccc1NC(=O)/C=C/c1ccc(CSc2ccc(Cl)cc2)cc1	rule met
CC(=O)Nc1ccc(C(=O)Nc2ccccc2N)cc1	rule not met
Nc1ccccc1NC(=O)c1ccc(CSc2ccc(F)cc2)cc1	rule not met
Nc1ccccc1NC(=O)c1ccc(CSc2ccc(Cl)cc2)cc1	rule not met
COc1ccc(SCc2ccc(/C=C/C(=O)Nc3ccccc3N)cc2)cc1OC	rule met
Nc1ccccc1NC(=O)/C=C/c1ccc(CSc2ccc(C(F)(F)F)cn2)cc1	rule met
Nc1ccccc1NC(=O)/C=C/c1ccc(CSCCc2ccccc2)cc1	rule not met
CCc1ccc(SCc2ccc(/C=C/C(=O)Nc3ccccc3N)cc2)cc1	rule met
CCc1ccc(SCc2ccc(C(=O)Nc3ccccc3N)cc2)cc1	rule met
Nc1ccccc1NC(=O)c1ccc(CSCCc2ccccc2)cc1	rule not met
Cc1ccc(SCc2ccc(C(=O)Nc3ccccc3N)cc2)cc1	rule not met
Nc1ccccc1NC(=O)c1ccc(CSc2ccc(C(F)(F)F)cn2)cc1	rule not met
Nc1ccccc1NC(=O)c1ccc(CSc2ccc(Br)cc2)cc1	rule not met

---

# Tested on: A549
# protocol_description: Induction of apoptosis in human A549 cells assessed as viable cells at 0.5 uM after 48 hrs by Annexin V-FITC/propidium iodide staining based flow cytometry (reference value: 98%)
# Assay type: functional
# run_parameters: A549, 48 h, read-out: Activity
measurement_type: viability at 0.5 µM

smiles_record	recorded_result
CC(=O)Nc1ccc(C(=O)Nc2ccccc2N)cc1	92.4%
COc1ccc(SCc2ccc(C(=O)Nc3ccccc3N)cc2)cc1	66%
CCc1ccc(SCc2ccc(C(=O)Nc3ccccc3N)cc2)cc1	80.8%
Nc1ccc(F)cc1NC(=O)c1ccc(CNC(=O)/C=C/c2cccnc2)cc1	96.5%

---

# system_under_test: Histone deacetylase 2 (Homo sapiens, UniProt Q92769)
# Sequence (Q92769 whole entry): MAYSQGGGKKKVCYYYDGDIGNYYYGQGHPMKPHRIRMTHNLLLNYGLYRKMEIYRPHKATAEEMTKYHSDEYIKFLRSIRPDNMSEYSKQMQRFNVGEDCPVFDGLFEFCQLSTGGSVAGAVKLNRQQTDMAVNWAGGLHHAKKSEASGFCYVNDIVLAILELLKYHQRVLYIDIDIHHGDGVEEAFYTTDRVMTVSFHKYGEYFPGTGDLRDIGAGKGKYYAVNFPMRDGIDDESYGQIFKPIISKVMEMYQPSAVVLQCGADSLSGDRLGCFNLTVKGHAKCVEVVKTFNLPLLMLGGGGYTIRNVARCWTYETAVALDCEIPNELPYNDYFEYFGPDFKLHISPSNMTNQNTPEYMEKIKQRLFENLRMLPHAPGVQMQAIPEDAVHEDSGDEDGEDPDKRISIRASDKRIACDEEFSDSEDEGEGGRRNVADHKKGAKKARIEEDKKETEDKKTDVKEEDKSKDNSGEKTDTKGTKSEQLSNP
# protocol_description: Inhibition of recombinant human HDAC2 assessed as decrease in deacetylation of FLUOR DE LYS Green substrate preincubated for 10 mins followed by substrate addition and measured after 30 mins by fluorescence based assay

smiles_record	IC50 / nM
Nc1ccccc1NC(=O)c1ccc(CSc2nccc(C(F)(F)F)n2)cc1	441
CCc1ccc(SCc2ccc(C(=O)Nc3ccccc3N)cc2)cc1	144
COc1ccc(SCc2ccc(C(=O)Nc3ccccc3N)cc2)cc1	205
Cc1cc(C)cc(SCc2ccc(C(=O)Nc3ccccc3N)cc2)c1	139

---

# system_under_test: Histone deacetylase 3/NCoR1 (Homo sapiens)
# Sequence (O15379 whole entry): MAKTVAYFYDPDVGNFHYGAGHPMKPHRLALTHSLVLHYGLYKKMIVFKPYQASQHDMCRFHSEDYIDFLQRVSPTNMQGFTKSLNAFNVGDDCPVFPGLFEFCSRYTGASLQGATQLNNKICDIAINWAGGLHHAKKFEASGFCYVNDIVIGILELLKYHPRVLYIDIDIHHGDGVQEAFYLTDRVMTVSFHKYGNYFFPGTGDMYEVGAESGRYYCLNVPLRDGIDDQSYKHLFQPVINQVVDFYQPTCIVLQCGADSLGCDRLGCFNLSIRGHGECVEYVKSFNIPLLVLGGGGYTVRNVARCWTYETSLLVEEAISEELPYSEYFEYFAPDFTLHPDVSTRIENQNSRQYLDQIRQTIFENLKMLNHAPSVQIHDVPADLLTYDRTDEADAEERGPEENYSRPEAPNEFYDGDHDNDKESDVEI
# Sequence (O75376 whole entry, further chain): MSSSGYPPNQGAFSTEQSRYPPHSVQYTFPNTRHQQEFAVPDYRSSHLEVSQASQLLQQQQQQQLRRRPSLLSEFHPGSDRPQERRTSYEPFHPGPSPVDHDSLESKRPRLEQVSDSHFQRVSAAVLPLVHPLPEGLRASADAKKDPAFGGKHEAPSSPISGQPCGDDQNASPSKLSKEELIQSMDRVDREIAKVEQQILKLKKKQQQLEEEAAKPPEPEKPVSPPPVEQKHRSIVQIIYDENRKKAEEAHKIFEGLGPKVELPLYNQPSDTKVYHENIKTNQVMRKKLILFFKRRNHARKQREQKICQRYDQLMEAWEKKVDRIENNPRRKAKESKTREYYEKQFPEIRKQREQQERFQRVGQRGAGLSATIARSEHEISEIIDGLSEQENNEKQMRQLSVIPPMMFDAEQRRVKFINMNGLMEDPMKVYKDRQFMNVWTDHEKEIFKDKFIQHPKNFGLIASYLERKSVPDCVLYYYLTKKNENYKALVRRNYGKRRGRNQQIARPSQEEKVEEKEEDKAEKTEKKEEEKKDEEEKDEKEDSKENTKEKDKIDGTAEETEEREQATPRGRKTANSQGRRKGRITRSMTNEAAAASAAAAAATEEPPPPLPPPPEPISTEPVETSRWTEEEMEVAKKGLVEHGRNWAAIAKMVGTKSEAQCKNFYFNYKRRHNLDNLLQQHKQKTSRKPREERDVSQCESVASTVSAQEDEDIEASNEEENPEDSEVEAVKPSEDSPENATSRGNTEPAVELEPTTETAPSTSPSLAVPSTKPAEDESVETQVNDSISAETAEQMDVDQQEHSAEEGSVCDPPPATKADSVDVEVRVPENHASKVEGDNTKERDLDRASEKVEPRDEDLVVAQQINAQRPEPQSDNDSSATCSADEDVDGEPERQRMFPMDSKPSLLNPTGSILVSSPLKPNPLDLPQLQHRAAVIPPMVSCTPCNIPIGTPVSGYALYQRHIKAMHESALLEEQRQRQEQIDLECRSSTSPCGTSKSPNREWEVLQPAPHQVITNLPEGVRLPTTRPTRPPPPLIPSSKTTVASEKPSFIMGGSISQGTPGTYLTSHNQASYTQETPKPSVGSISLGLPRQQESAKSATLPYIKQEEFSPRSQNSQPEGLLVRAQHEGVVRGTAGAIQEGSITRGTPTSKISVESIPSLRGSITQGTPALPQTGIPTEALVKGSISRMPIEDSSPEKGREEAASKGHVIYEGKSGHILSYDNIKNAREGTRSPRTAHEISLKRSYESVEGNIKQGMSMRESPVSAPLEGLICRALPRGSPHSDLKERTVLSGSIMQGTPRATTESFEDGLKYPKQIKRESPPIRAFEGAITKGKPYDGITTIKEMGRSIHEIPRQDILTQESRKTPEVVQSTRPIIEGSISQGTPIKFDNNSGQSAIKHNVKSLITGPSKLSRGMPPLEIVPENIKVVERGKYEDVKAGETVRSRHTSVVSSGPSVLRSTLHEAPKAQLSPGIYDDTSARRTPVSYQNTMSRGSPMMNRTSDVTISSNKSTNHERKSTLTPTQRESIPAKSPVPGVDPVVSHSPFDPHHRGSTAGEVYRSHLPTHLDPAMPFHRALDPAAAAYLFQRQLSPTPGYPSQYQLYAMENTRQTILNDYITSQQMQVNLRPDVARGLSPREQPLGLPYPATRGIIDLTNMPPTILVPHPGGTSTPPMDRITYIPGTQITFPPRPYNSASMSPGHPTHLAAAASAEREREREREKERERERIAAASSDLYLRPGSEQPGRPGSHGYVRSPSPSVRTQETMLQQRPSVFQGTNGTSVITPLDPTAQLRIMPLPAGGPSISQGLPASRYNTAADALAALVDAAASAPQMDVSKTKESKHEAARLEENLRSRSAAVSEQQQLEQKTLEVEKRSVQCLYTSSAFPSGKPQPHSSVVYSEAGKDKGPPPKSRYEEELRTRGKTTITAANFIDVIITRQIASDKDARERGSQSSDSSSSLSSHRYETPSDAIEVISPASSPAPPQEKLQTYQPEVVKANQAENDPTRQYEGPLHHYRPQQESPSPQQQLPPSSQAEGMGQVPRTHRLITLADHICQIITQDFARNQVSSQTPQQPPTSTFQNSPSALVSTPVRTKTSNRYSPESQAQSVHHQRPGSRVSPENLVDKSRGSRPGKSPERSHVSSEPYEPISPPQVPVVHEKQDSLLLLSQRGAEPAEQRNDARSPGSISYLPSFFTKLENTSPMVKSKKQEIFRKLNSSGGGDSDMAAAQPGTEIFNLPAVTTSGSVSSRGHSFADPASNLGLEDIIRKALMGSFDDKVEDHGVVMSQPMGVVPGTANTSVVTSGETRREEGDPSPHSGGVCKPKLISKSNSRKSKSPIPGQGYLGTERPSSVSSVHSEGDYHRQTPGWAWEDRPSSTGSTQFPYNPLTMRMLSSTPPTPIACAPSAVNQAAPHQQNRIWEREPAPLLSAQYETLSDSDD
# protocol_description: Inhibition of recombinant human HDAC3/NCOR1 assessed as decrease in deacetylation of FLUOR DE LYS SIRT1 substrate preincubated for 10 mins followed by substrate addition and measured after 30 mins by fluorescence based assay

smiles_record	IC50 / µM
CCc1ccc(SCc2ccc(C(=O)Nc3ccccc3N)cc2)cc1	0.215
COc1ccc(SCc2ccc(C(=O)Nc3ccccc3N)cc2)cc1	0.136
Cc1cc(C)cc(SCc2ccc(C(=O)Nc3ccccc3N)cc2)c1	0.381
Nc1ccccc1NC(=O)c1ccc(CSc2nccc(C(F)(F)F)n2)cc1	0.274
